Origin of measurements: ChEMBL document CHEMBL5543125

assay: Terminal elimination half life in ICR mouse at 12 mg/kg, po measured upto 24 hrs by LC-MS/MS analysis; format: ADME, organism-based; settings: in vivo, read-out: beta t1/2 (converted)
ENDPOINT NAME: half-life (h)

INSERT INTO measurements (compound, scale_unit, number) VALUES
  ('COc1nn2cc(-c3cc4ccc5c(c4o3)OCC(COc3ccc(F)cc3)O5)nc2s1 (configuration not stated)', 'h', 29.5),
  ('COc1nn2cc(-c3cc4ccc5c(c4o3)OC(COc3ccc(F)cc3)CO5)nc2s1 (configuration not stated)', 'h', 7.32);

----------
experiment: Cmax in ICR mouse at 12 mg/kg, po measured upto 24 hrs by LC-MS/MS analysis; assay type: ADME, organism-based; settings: in vivo
ENDPOINT NAME: Cmax (ng/mL)

INSERT INTO assay_data (molecule, endpoint_name, scale_unit, number) VALUES
  ('COc1nn2cc(-c3cc4ccc5c(c4o3)OCC(COc3ccc(F)cc3)O5)nc2s1 (configuration not stated)', 'Cmax', 'ng/mL', 204),
  ('COc1nn2cc(-c3cc4ccc5c(c4o3)OC(COc3ccc(F)cc3)CO5)nc2s1 (configuration not stated)', 'Cmax', 'ng/mL', 325);
